Origin of measurements: the supplement of paper PMC9170038

Entries and their apparent KD of MS2 coat protein
- Tested on: MS2 coat protein
- TEST_PROTOCOL: apparent KD of MS2 coat protein; designed switch direction (-1 OFF switch, 1 ON switch): -1; higher = weaker reporter binding
- CONDITION: input ligand: microRNA oligo, concentration not stated
Your answer is read as µM, so omit the unit and give the number.

* AAUAACAGAGGAUAUACUAUUUUAUGUGUUUGUUAUUUUGAACAUGAGGAUCACCCAUGUAGAAGGCUGAUUAA [JMF 49] (Eterna round: R96, puzzle: Exclusion 2) | 0.0352
* AUAAAUCAUGUAGGAUAUGCGUGGCGAAGCUAUGCAGAAGGACAUGAGGAUCACCCAUGUGCUUCCGUCUGCGUACAGACGGAA [Mat - Exclusion NG 1 - Mod of JL - D35] (Eterna round: R96, puzzle: Exclusion NG 1) | 0.228
* UUAAAUCAUGUAGGAUAUGCGUGGCGAAGCUAUGCAGAAGGACAUGAGGAUCACCCAUGUUCUUGCGUCUGCGUACAGAUGCAA [JL ENG1 1.09] (Eterna round: R96, puzzle: Exclusion NG 1) | 0.026
* UAUAUAUAGUAAGGAUAUGUAUUUCUUUUAUAAACAGAAGGUACUGACAUGAGGAUCACCCAUGUUUUAGUGUGGGCAUGUAGA [JMF's solution 12] (Eterna round: R96, puzzle: Exclusion NG 1) | 0.0631

[ask] Return reported apparent KD of MS2 coat protein. Input sequence: UUAUUAUAUGUAGGAUAUGCAUAUUGUUAUUAUGCAGAAGGACAUGAGGAUCACCCAUGUAUAUUAUUAUUAUAUAUUAUAUAU [Title] (Eterna round: R96, puzzle: Exclusion NG 1)
[reply] 0.0233
